Below, each entry is listed with its recorded melting point.

[[record]]
compound = "Cc1cc(Br)cnc1CCCCn1nnc2cc(Cc3cccnc3)cnc21"
measured_parameter = "melting point"
result_value = "114 to 115 °C"


Exam item: Need melting point, item `Fc1ccc(CN2CC=C(c3cc4ccccc4s3)CC2)cc1`
Marked response: 142 to 144 °C

Exam item: Entry `Cc1cc(C)c(Nc2nc(Nc3ccc(C#N)cc3)ncc2N)c(C)c1` : reported melting point = ?
Marked response: 224 to 225 °C

Exam item: For the compound `C=CCN1CCC2(CC1)CSC1=C(O2)c2ccccc2C(=O)C1=O` , what melting point is on record?
Marked response: 166 to 168 °C

Exam item: Please report the recorded melting point for CC1CC(C(=O)O)NC1=O (stereo unspecified) .
Marked response: 169 to 170 °C

Exam item: Look up melting point: `CC(C)Oc1c(-c2ccc(S(C)(=O)=O)cc2)cnn(-c2ccc(F)cc2)c1=O`
Marked response: 135 to 137 °C

###

measured.parameter: melting point

[[record]]
compound = "CN(CCc1ccccc1)C(=O)Cn1cc(C=O)c2c(OCc3ccccc3)cccc21"
result_value = "120 to 122 °C"


Consider the record given below.
Exam item: Consider the compound shown here: `COC(=O)c1cc2c(Br)csc2nc1C(=O)OC` What is its recorded melting point?
Marked response: 86 to 87.5 °C

###

measured.parameter: melting point

[[record]]
compound = "CCc1nc2c(cnn2CC)c(NC2CCOCC2)c1CNC(=O)c1cc(C)cc(C(=O)NCc2cccc(Br)c2)c1"
result_value = "116 to 118 °C"


Exam item: I would be grateful if you could share the reported melting point for `CC(C)(O)[C@H](N)c1ccccc1` .
Marked response: 49 °C

Exam item: Name the reported melting point value associated with the compound O=S1(=O)NC(c2ccccc2)Nc2ccccc21 (centres undefined)
Marked response: 126 to 128 °C

Exam item: Report melting point for `CCCc1c2oc(C(=O)O)cc(=O)c2cc2c(=O)cc(N(C(C)=O)C(C)=O)oc12` please.
Marked response: 267 °C

Exam item: melting point lookup needed for C=C1CN(c2c(F)cc3c(=O)c(C(=O)O)cn(C4CC4)c3c2F)CC1NC (centres undefined) , thanks.
Marked response: 239 to 243 °C

###

In this section we review reported melting point values for a set of compounds.

Worked examples follow.
[[record]]
smi = "CC(C)(C)c1ccc(-c2c(Cl)c(CN3C(=O)CCC3=O)nc3sc4c(c23)CCN(Cc2ccccc2)C4)cc1"
result_value = "198 to 199 °C"

[[record]]
smi = "Cc1cccc2sc(COc3ccc(F)c(C(N)=O)c3F)nc12"
result_value = "201 to 202 °C"

[[record]]
smi = "CN(CCOc1ccc(N)cc1)c1ccncc1"
result_value = "141 to 142 °C"

[[record]]
smi = "CCCCCCCCCCCCCCCCCCNC(=O)NN"
result_value = "100 °C"

[[record]]
smi = "CCCCCCCCCCCCCCCCCC(=O)C(=O)OCC"
result_value = "43 to 44 °C"


Attention now shifts to the item below.
Exam item: Given the compound `Nc1ccccc1C(=O)NCCCCN1CCC(OC(c2ccccc2)c2ccccc2)CC1` , what is its reported melting point?
Marked response: 74 to 75 °C

###

measured.parameter: melting point

[[record]]
compound = "O=C(NCC1Cc2cc(Cl)c3ccccc3c2O1)OCc1ccccc1 (stereo not drawn)"
result_value = "117 to 119 °C"

[[record]]
compound = "CN(C)Cc1cn(CCC(=O)O)c(=S)n1C1CCc2ccccc2C1 (stereo not drawn)"
result_value = "171 to 174 °C"

[[record]]
compound = "Cc1ccc(S(=O)(=O)NC(=O)Nc2ccccc2)cc1"
result_value = "166 °C"


Next up:
Exam item: // lookup melting point for `CNC(=O)c1ccccc1NC(=O)COc1ccc(C(C)=O)cc1`
Marked response: 252 to 253 °C

###

Below is a list of entries, each paired with its recorded melting point value.

Example cases with answers are listed next.
[[record]]
smi = "CN(C)Cc1ccc(Cn2ccc(OCc3ccc(F)cc3F)c(Br)c2=O)cc1"
result_value = "111 to 113 °C"

[[record]]
smi = "NC(=O)C1(CCCNC2CC2)c2ccccc2-c2ccccc21"
result_value = "163 to 165 °C"

[[record]]
smi = "COc1ccc2c(-c3c(F)cccc3F)noc2c1Cl"
result_value = "175 to 179 °C"

[[record]]
smi = "CC1=C(C#N)S(=O)(=O)c2ccc(C(F)(F)F)cc2N1"
result_value = "329 to 333 °C"


Please look at the following molecule next.
Exam item: Please look up its melting point: `N#Cc1cccc(-c2ccc3c(c2)C2(CCCCC2)C(=NO)N3)c1`
Marked response: 198 to 200 °C

###

Quick reference for melting point among some compounds

[[record]]
compound = "COc1ccc(-c2cc3cc(F)c(F)cc3[nH]2)cc1NCc1ccc([N+](=O)[O-])c(O)c1"
measured_parameter = "melting point"
result_value = "170 to 171 °C"

[[record]]
compound = "O=C(NCC12CC3CC(CC(C3)C1)C2)c1cc(-c2cc(F)cnc2N2CCC(C(=O)O)CC2)ccc1Cl"
measured_parameter = "melting point"
result_value = "130 to 135 °C"


Exam item: Quick check: melting point of `O=C(NCCc1ccc(O)c(O)c1)C1CC1` ?
Marked response: 174 to 176 °C

###

Attribute: melting point

[[record]]
molecule = "CCCCCCCCCCCCCCCCCCOc1ccc(OCCCc2ccccc2)c(C(=O)N(CC(=O)O)CC(=O)O)c1"
result_value = "101 to 102 °C"

[[record]]
molecule = "Cc1c(CO)ncn1CCCNC(C)(C)c1ccc(Cl)cc1"
result_value = "97 to 99 °C"

[[record]]
molecule = "C=CCC1NC(=O)C1C(C)(C)O (stereo unspecified)"
result_value = "144 °C"

[[record]]
molecule = "C[Si](C)(C)C1([Si](C)(C)C)c2ccccc2-c2ccccc21"
result_value = "110 to 112 °C"

[[record]]
molecule = "Cc1noc(NS(=O)(=O)c2ccccc2-c2ccc(-c3ncco3)cc2Cn2ccnc2C(C)C)c1C"
result_value = "184 to 188 °C"

[[record]]
molecule = "Cc1ccccc1NS(=O)(=O)c1cc([N+](=O)[O-])ccc1C"
result_value = "171 to 173 °C"

[[record]]
molecule = "CCOc1c(C)cnc(CO)c1C"
result_value = "58 to 59 °C"

[[record]]
molecule = "CC(=O)Nc1ccc(OCC(O)CN2CCC(N3CCCNC3=O)CC2)cc1 (stereo unspecified)"
result_value = "218 to 221 °C"


Exam item: Which melting point is listed for CC1=C(C(=O)N(C)C)C(c2ccccc2Cl)c2c[nH]nc2N1 (stereo unspecified) ?
Marked response: 229 °C

Exam item: Can you look up the measured melting point of CC1SC(=O)NN=C1c1ccc2c(c1)C(=Nc1ccc(N(C)C)cc1)C(=O)N2 (stereo unspecified) for me?
Marked response: 261 °C

Exam item: Consider the molecule `CC(=O)Nc1nc(CCc2ccc(N)cc2)c(C(=O)O)s1` and give its measured melting point.
Marked response: 212 °C

###

The reader will find reported melting point values listed item by item below.

Worked cases, melting point given:
[[record]]
compound = "COC(=O)c1ccc(NC(=O)N(C)C)cc1"
result_value = "169 to 170 °C"

[[record]]
compound = "CC(=O)Nc1cc(C)cc(Br)n1"
result_value = "190 °C"

[[record]]
compound = "CC(C)OCCOc1ccc(-c2ccc3c(c2)C=C(C(=O)O)CCN3C=O)cc1"
result_value = "165 to 166 °C"

[[record]]
compound = "COc1ccc2c(c1)C(=O)C1=NCCCN12"
result_value = "152 °C"

[[record]]
compound = "COc1ccc2[nH]cc(SCCN=C3CCCN3C)c2c1"
result_value = "154 to 157 °C"

[[record]]
compound = "Cc1ccccc1-c1c(C(=O)O)c(=O)oc2cc3c(cc12)CCCC3"
result_value = "216 to 217 °C"

[[record]]
compound = "CC(C)(C)C(=O)Nc1cccc(N)n1"
result_value = "140 to 141 °C"

[[record]]
compound = "CC(=O)NC(=S)NCC1CC2c3cccc4c3c(cn4C)CC2N(C)C1 (centres undefined)"
result_value = "195 to 197 °C"


Proceeding to the next compound to report its melting point.
Exam item: Please report the recorded melting point for O=C(c1ccccc1)c1ccc2c(c1)CC(C(=O)NCCO)C2 (centres undefined) .
Marked response: 106 to 107 °C

###

measured.parameter: melting point

Take a look at these entries with their results.
[[record]]
compound = "CCn1cc(C(=O)NCc2ccc(Cl)cc2)c(=O)c2cc(CN(C)C[C@@H](O)c3ccco3)sc21"
result_value = "123 to 127 °C"

[[record]]
compound = "CCn1cc(Cl)c2cnc(NC(=O)c3ccc([C@](C)(O)CO)cc3)cc21"
result_value = "223 to 224 °C"

[[record]]
compound = "Cc1nc2c(OCc3ccccc3)cc(Br)cn2c1C"
result_value = "151 to 153 °C"


Exam item: What measured melting point goes with CCOC(=O)C1CCC(c2ccc(OCC(=O)O)c(Cl)c2Cl)=CC1=O (centres undefined) ?
Marked response: 193 to 195 °C
